Source listed as patent US10287251B2.

ASSAYED_TARGET: TRPM8 (Rattus norvegicus)
Construct: from tissue; host or cells: whole animal, female SD rats (in vivo)
PROCEDURE_DETAILS: Confirmation test of inhibitory effects on icilin-induced wet-dog shakes
Type: in vivo
CONDITION_PARAMETERS: female SD rats, oral dose 3 mg/kg, icilin 1 mg/kg i.p. 1 hour after dosing, shakes counted for 5 minutes
RECORDED_METRIC: % inhibition of Wet-Dog Shake (%)

Check out these entries, answers already filled in.
O=C(N[C@@H](CO)Cc1ccccn1)c1cccc(OC(F)(F)F)c1-c1cc(-c2ccc(F)cc2)[nH]n1	69
CC(CO)(CO)[C@@H](Cc1ccccn1)NC(=O)c1cccc(F)c1-c1cc(-c2ccc(Cl)cc2)[nH]n1	42

[I] CO[C@H](CO)[C@@H](Cc1ccccn1)NC(=O)c1cccc(F)c1-c1n[nH]c(-c2ccc(F)cc2)c1Cl
[II] O=C1N[C@@H]([C@@H](Cc2ccccn2)NC(=O)c2cccc(F)c2-c2cc(-c3ccc(F)cc3)[nH]n2)CO1
[III] CC(O)[C@@H](Cc1ccccn1)NC(=O)c1cccc(F)c1-c1cc(-c2ccc(F)cc2)[nH]n1 (stereo partly shown) [Example 1-113]
Task for the reader: rank each entry by its % inhibition of Wet-Dog Shake, from the minimum upward. Field: ranking. Enter the labels in the order requested. I, II, III

====

ASSAYED_TARGET: TRPM8 (Rattus norvegicus, UniProt Q8R455)
Construct: from tissue; host or cells: whole animal, female SD rats (in vivo)
Sequence (Q8R455 whole entry): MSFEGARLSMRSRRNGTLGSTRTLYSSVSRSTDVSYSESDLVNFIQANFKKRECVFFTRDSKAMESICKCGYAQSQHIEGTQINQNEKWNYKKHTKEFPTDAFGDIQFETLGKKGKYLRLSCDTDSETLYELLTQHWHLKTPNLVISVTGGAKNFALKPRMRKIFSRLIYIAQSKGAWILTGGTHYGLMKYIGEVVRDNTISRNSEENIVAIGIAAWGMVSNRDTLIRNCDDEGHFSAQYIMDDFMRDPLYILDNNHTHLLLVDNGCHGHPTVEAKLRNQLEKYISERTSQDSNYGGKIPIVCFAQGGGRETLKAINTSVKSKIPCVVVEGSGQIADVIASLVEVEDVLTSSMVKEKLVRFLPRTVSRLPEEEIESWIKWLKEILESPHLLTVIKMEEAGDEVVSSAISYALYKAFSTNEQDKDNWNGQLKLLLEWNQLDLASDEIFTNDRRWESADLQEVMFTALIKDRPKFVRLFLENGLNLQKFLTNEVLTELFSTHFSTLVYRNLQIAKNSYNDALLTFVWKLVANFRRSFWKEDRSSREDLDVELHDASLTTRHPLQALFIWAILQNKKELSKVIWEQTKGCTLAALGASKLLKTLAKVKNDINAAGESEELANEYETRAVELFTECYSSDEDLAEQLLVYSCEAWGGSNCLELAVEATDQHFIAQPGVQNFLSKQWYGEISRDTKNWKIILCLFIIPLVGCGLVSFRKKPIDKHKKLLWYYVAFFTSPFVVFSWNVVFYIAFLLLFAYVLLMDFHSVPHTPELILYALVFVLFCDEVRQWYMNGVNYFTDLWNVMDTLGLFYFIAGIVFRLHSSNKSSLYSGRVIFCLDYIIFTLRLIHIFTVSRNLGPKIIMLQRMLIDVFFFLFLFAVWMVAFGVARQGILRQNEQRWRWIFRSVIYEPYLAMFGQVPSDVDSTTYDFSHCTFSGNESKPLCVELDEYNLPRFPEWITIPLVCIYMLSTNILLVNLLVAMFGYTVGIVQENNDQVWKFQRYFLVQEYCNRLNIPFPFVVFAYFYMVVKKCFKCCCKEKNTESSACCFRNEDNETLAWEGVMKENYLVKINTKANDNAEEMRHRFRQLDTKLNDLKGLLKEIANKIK
PROCEDURE_DETAILS: Confirmation test of inhibitory effects on icilin-induced wet-dog shakes
Assay type: in vivo
CONDITION_PARAMETERS: female SD rats, oral dose 10 mg/kg, icilin 1 mg/kg i.p. 1 hour after dosing, shakes counted for 5 minutes
RECORDED_METRIC: % inhibition of Wet-Dog Shake (%)

Sample records with % inhibition of Wet-Dog Shake:
O=C(NCCc1ccccn1)c1cccc(OC(F)(F)F)c1-c1cc(-c2ccccc2)[nH]n1	70
NC(=O)[C@@H](Cc1ccccn1)NC(=O)c1ccccc1-c1cc(-c2ccccc2)[nH]n1	54
O=C(NCCc1ccccn1)c1ccccc1-c1cc(-c2ccccc2)[nH]n1	66
NC[C@@H](Cc1ccccn1)NC(=O)c1ccccc1-c1cc(-c2ccc(F)c(F)c2)[nH]n1	51

[A] NC(=O)C[C@@H](Cc1ccccc1)NC(=O)c1cccc(F)c1-c1cc(-c2ccc(F)cc2)[nH]n1
[B] O=C(N[C@@H](CO)Cc1ccccn1)c1cccc(F)c1-c1cc(-c2ccccc2)[nH]n1
Thinking about recorded % inhibition of Wet-Dog Shake values, which is higher, A or B ? Please identify the chosen entry by its label. B

====

ASSAYED_TARGET: TRPM8 (Rattus norvegicus)
Construct: from tissue; host or cells: whole animal, female SD rats (in vivo)
PROCEDURE_DETAILS: Confirmation test of inhibitory effects on icilin-induced wet-dog shakes
Assay type: in vivo
CONDITION_PARAMETERS: female SD rats, oral dose 0.3 mg/kg, icilin 1 mg/kg i.p. 1 hour after dosing, shakes counted for 5 minutes
RECORDED_METRIC: % inhibition of Wet-Dog Shake (%)

# count of solved cases: 5
O=C(N[C@H](Cn1nccn1)[C@H](F)CO)c1cccc(F)c1-c1n[nH]c(-c2ccc(F)cc2)c1F	93
CO[C@H](CO)[C@@H](Cc1ncccc1F)NC(=O)c1cccc(F)c1-c1cc(-c2ccc(F)cc2)[nH]n1	56
O=C(N[C@H](Cc1ncccc1F)[C@H](F)CO)c1cccc(F)c1-c1cc(-c2ccc(F)cc2)[nH]n1	54
CO[C@H](CO)[C@@H](Cn1nccn1)NC(=O)c1cccc(F)c1-c1n[nH]c(-c2ccc(F)cc2)c1F	62
CO[C@H](CO)[C@@H](Cc1ccccn1)NC(=O)c1ccccc1-c1n[nH]c(-c2ccc(F)cc2)c1F	98

[A] O=C(N[C@H](Cn1nccn1)C(F)(F)CO)c1cccc(F)c1-c1cc(-c2ccc(F)cc2)[nH]n1
[B] CO[C@H](CO)[C@@H](Cc1ccccn1)NC(=O)c1cccc(F)c1-c1cc(-c2ccc(F)cc2)[nH]n1
Two entries are listed, A and B . Which one carries the higher % inhibition of Wet-Dog Shake? Refer to your chosen item by its label in the answer. A

====

ASSAYED_TARGET: TRPM8 (Rattus norvegicus, UniProt Q8R455)
Construct: from tissue; host or cells: whole animal, female SD rats (in vivo)
PROCEDURE_DETAILS: Confirmation test of inhibitory effects on icilin-induced wet-dog shakes
Format: in vivo
CONDITION_PARAMETERS: female SD rats, oral dose 3 mg/kg, icilin 1 mg/kg i.p. 1 hour after dosing, shakes counted for 5 minutes
Text: Further, TRPM8 inhibitory activity can be evaluated by the efficacy inhibiting the wet-dog shake action which is induced by the administration of Icilin, TRPM8 agonist. Furthermore, an effect on overactive bladder (OAB) can be evaluated by an elongation of micturition interval against overactive bladder induced by acetic acid in accordance with a similar method described in J. Urol., 2001, 166, 1142. Confirmation Test of Inhibitory Effects on Icilin-induced Wet-dog Shakes […]
RECORDED_METRIC: % inhibition of Wet-Dog Shake (%)

CO[C@@H](CO)[C@@H](Cc1ccccn1)NC(=O)c1cccc(F)c1-c1cc(-c2ccc(F)cc2)[nH]n1 [Example 43-2]	100
C[C@@](O)(CO)[C@@H](Cc1ccccn1)NC(=O)c1cccc(F)c1-c1cc(-c2ccc(F)cc2)[nH]n1 [Example 1-224]	82
CC(C)(O)[C@@H](Cc1ccccn1)NC(=O)c1cccc(Cl)c1-c1cc(-c2ccc(F)cc2)[nH]n1 [Example 33-3]	32
O=C(NC(CCO)Cc1ccccn1)c1ccccc1-c1cc(-c2ccc(F)cc2)[nH]n1 (stereo not shown) [Example 26-2]	69
O=C(N[C@H](Cn1cccn1)[C@@H](F)CO)c1cccc(F)c1-c1cc(-c2ccc(F)cc2)[nH]n1 [Example 50-11]	100

[I] O=C(N[C@@H](CO)Cc1ccccn1)c1cccc(F)c1-c1cc(-c2ccc(Cl)cc2)[nH]n1 [Example 1-137]
[II] O=C(N[C@H](Cn1cccn1)[C@H](F)CO)c1cccc(Cl)c1-c1cc(-c2ccc(F)cc2)[nH]n1 [Example 43-45]
Form: Entry with minimum % inhibition of Wet-Dog Shake (choose one): I / II Lab log: write the label of the selected item as the result. II
(II: 40%, I: 84%)

====

ASSAYED_TARGET: TRPM8 (Rattus norvegicus, UniProt Q8R455)
Construct: from tissue; host or cells: whole animal, female SD rats (in vivo)
PROCEDURE_DETAILS: Confirmation test of inhibitory effects on icilin-induced wet-dog shakes
Type: in vivo
CONDITION_PARAMETERS: female SD rats, oral dose 3 mg/kg, icilin 1 mg/kg i.p. 1 hour after dosing, shakes counted for 5 minutes
RECORDED_METRIC: % inhibition of Wet-Dog Shake (%)

[P] C[C@H](O)[C@@H](Cc1ccccc1)NC(=O)c1cccc(F)c1-c1cc(-c2ccc(F)cc2)[nH]n1
[Q] CO[C@@H](CO)[C@@H](Cn1cccn1)NC(=O)c1cccc(F)c1-c1cc(-c2ccc(F)cc2)[nH]n1
[R] O=C(N[C@@H](CO)Cc1cscn1)c1cccc(F)c1-c1cc(-c2ccc(F)cc2)[nH]n1
// sort entries: % inhibition of Wet-Dog Shake, high to low Please respond by ranking the labels in the order requested. Q, P, R
(Q: 86%, P: 60%, R: 37%)

[a] COc1cccnc1C[C@H](CCO)NC(=O)c1cccc(F)c1-c1cc(-c2ccc(F)cc2)[nH]n1
[b] O=C(N[C@@H](Cc1ccccn1)[C@H](F)CO)c1cccc(F)c1-c1cc(-c2ccc(F)cc2)[nH]n1
# compare % inhibition of Wet-Dog Shake for a vs b ; return the one with the smaller value // caller expects the label of the chosen entry a
(a: 61%, b: 100%)

[I] O=C(N[C@H](Cc1ccccn1)[C@@H](O)CO)c1cccc(F)c1-c1cc(-c2ccc(F)cc2)[nH]n1
[II] CC(c1ccccn1)[C@H](CO)NC(=O)c1cccc(F)c1-c1cc(-c2ccc(F)cc2)[nH]n1 (stereo partly drawn)
Which value of % inhibition of Wet-Dog Shake is smaller, the one for I or the one for II ? Choose, then provide that item's label. I
(I: 47%, II: 91%)

[a] O=C(N[C@@H](CO)Cc1ccccn1)c1cccc(Cl)c1-c1cc(-c2ccc(F)cc2)[nH]n1
[b] O=C(N[C@@H](CO)C(F)c1ccccn1)c1cccc(F)c1-c1cc(-c2ccc(F)cc2)[nH]n1 (stereo partly drawn)
Field: lower recorded % inhibition of Wet-Dog Shake (choose a or b ) When you have decided, please share the label of that item. a
(a: 45%, b: 88%)

====

ASSAYED_TARGET: TRPM8 (Rattus norvegicus)
Construct: from tissue; host or cells: whole animal, female SD rats (in vivo)
PROCEDURE_DETAILS: Confirmation test of inhibitory effects on icilin-induced wet-dog shakes
Type: in vivo
CONDITION_PARAMETERS: female SD rats, oral dose 3 mg/kg, icilin 1 mg/kg i.p. 1 hour after dosing, shakes counted for 5 minutes
RECORDED_METRIC: % inhibition of Wet-Dog Shake (%)

COC(c1ccccn1)[C@H](CO)NC(=O)c1cccc(F)c1-c1cc(-c2ccc(F)cc2)[nH]n1 (stereo partly drawn) [Example 43-11]	88

[1] C[C@@](Cc1ccccc1)(NC(=O)c1cccc(F)c1-c1cc(-c2ccc(F)cc2)[nH]n1)C(N)=O
[2] CC(O)[C@@H](Cc1ccccn1)NC(=O)c1cccc(F)c1-c1cc(-c2ccc(F)cc2)[nH]n1 (stereo partly drawn) [Example 1-124]
Which of these two has the smaller recorded % inhibition of Wet-Dog Shake: 1 or 2 ? The response must carry the label of the picked entry. 2
(2: 42%, 1: 71%)
